system: RPMI-8226 leukemia; assay: NCI tumour cell line growth inhibition, 48 h

{"columns": ["COMPOUND", "INEQUALITY_SYMBOL", "TGI [µM]"],
 "data": [
  ["COC(=O)C(=O)C(CC(=O)Nc1ccc(C)cc1)C(=O)OC (configuration not stated)", ">", 100],
  ["COc1cc(C(=O)Oc2c(C(C)=O)sc3c2c(=O)n(-c2ccccc2)c(=S)n3-c2ccccc2)cc(OC)c1OC", "=", 59.9],
  ["COC/N=C(\\NC#N)NCOC", ">", 70.8],
  ["c1ccc(-c2nc3n(c2-c2ccc4c(c2)OCO4)CCC3)nc1", ">", 25],
  ["O=c1[nH]ncc2[nH]c3c4ccccc4ccc3c12", ">", 100],
  ["CCOc1ccc(N=C(NC(=O)c2ccccc2)SC)cc1", ">", 100],
  ["COc1ccc(C2=[S+]C(c3ccccc3)(c3ccccc3)c3ccccc32)cc1", "=", 53.9],
  ["CCOC(=O)/C=C/c1c(C)[nH]c(=O)[nH]c1=O", ">", 250],
  ["CC(O)c1cc2c(s1)C(=O)c1c(C(C)O)csc1C2=O (configuration not stated)", "=", 0.801],
  ["C=C1C(=O)O[C@H]2[C@H]1CC/C(Cn1cc(-c3ccc(N)cc3)nn1)=C\\CC[C@@]1(C)O[C@@H]21", "=", 10.4],
  ["C=C1C(=O)OC2C1CCC(C)C1(O)C=CC(=O)C21C (configuration not stated)", ">", 10],
  ["Cc1cc(CCl)c(C)cc1CCl", "=", 6.9],
  ["CC(NC(=O)Cc1ccc(C(F)(F)P(=O)(OCc2ccc([N+](=O)[O-])o2)N(C)CCCCCl)cc1)c1ccc(OCC2CCCCC2)c(C(N)=O)c1 (configuration not stated)", "=", 3.86],
  ["N=c1ccc2nc3ccc(N)cc3sc-2c1", "=", 26],
  ["C1=Cc2nc1c(-c1ccccc1)c1ccc([nH]1)c(-c1ccccc1)c1nc(c(-c3ccccc3)c3ccc([nH]3)c2-c2ccccc2)C=C1", ">", 100],
  ["C[N+](C)(C)CC1CCCCC1=O (configuration not stated)", "=", 44.7],
  ["O=c1oc(-c2ccc(O)cc2)cc2cc(O)ccc12", ">", 100],
  ["CN(Cc1ccc(F)cc1)c1ccc(CO)c(Cl)c1", "=", 60.6],
  ["CN(C)c1ccc(/C=C(\\NC(=O)c2ccccc2)c2nc3ccc4c(c3[nH]2)C(=O)c2ccccc2C4=O)cc1", ">", 100],
  ["CO[C@H]1/C=C/O[C@@]2(C)Oc3c(C)c(O)c4c(O)c(c(/C=N/N5CCN(C)CC5)c(O)c4c3C2=O)NC(=O)/C(C)=C\\C=C\\[C@H](C)[C@H](O)[C@@H](C)[C@@H](O)[C@@H](C)[C@H](OC(C)=O)[C@@H]1C", ">", 100],
  ["CC1CN=C(Nc2cccc(F)c2)S1 (configuration not stated)", ">", 100],
  ["COc1ccc(-c2nc(-c3nc4cc(Cl)c(F)cc4[nH]3)c3ccccn23)cc1", ">", 100]
]}

---

test system: SF-268 CNS; experiment: NCI tumour cell line growth inhibition, 48 h
Items are presented alongside their recorded TGI.

{"columns": ["COMPOUND", "TARGET", "TGI"],
 "data": [
  ["COC(=O)c1c(CC(Cc2ccc3c(c2)CCCC3)C(=O)O)ccc2c1CCCC2 (stereo unspecified)", "SF-268 CNS", "> 100 µM"],
  ["Cc1cccc2[nH]c3c(c(O)cc4[nH]c5cccc(C)c5c(=O)c43)c(=O)c12", "SF-268 CNS", "> 10 µM"],
  ["Clc1ccc(/C=C/c2ccc3ccccc3n2)cc1", "SF-268 CNS", "> 88.3 µM"],
  ["Cc1ccc2nc3n[nH]c(N)c3nc2c1", "SF-268 CNS", "> 100 µM"],
  ["COc1ccc2oc(S(=O)(=O)N3CC(CCl)c4ccc(N)cc43)cc2c1 (stereo unspecified)", "SF-268 CNS", "> 100 µM"],
  ["CC(O)c1cc2c(s1)C(=O)c1c(C(C)O)csc1C2=O (stereo unspecified)", "SF-268 CNS", "1.32 µM"],
  ["Cc1ccc(S(=O)C[C@](NC(=O)OCc2ccccc2)(Sc2ccccc2)C(F)F)cc1 (stereo partly specified)", "SF-268 CNS", "63.4 µM"],
  ["COc1cc(C2c3cc4c(cc3OC(NNS(=O)(=O)c3ccc(C)cc3)C2C)OCO4)cc(OC)c1OC (stereo unspecified)", "SF-268 CNS", "> 70.5 µM"],
  ["C=CC(C)(C)n1cc(C2=C(O)C(=O)C(c3cn(C(C)(C)C=C)c4ccccc34)=C(O)C2=O)c2ccccc21", "SF-268 CNS", "8.15 µM"],
  ["NC(=O)c1cccnc1", "SF-268 CNS", "> 100 µM"],
  ["COc1cc(/C=C2\\C[C@H]3[C@@H]4CCC5=CC(=O)CC[C@]5(C)[C@H]4CC[C@]3(C)C2=O)cc(OC)c1OC", "SF-268 CNS", "> 100 µM"],
  ["O=[N+]([O-])c1cc([As](Br)c2ccc(O)c([N+](=O)[O-])c2)ccc1O", "SF-268 CNS", "5.59 µM"],
  ["N=c1c2ccccc2sc2nc3ccccc3n12", "SF-268 CNS", "> 100 µM"],
  ["Oc1ccc(/C=C/c2cccc(/C=C/c3ccc(O)c(O)c3)n2)cc1O", "SF-268 CNS", "23.3 µM"],
  ["COC(=O)C(=O)C(CC(=O)Nc1ccc(C)cc1)C(=O)OC (stereo unspecified)", "SF-268 CNS", "> 100 µM"],
  ["CCOP(=O)(OCC)/C(C#N)=C/c1ccccn1", "SF-268 CNS", "> 100 µM"],
  ["COc1ccc2c(c1)C(=O)/C(=C/c1cccc(OCC(=O)Nc3nc(C)c(C)s3)c1)O2", "SF-268 CNS", "0.0743 µM"],
  ["COC(=O)CCC1(CCC(=O)OC)CCCCCCC(CCC(=O)OC)(CCC(=O)OC)C(=O)C1=O", "SF-268 CNS", "> 100 µM"],
  ["O=C1c2ccccc2C(=O)C12CCc1ccccc12", "SF-268 CNS", "> 100 µM"],
  ["O=c1oc(-c2ccc(O)cc2)cc2cc(O)ccc12", "SF-268 CNS", "97.6 µM"],
  ["COc1ccc2c(c1)CN([C@@H](C)[C@H]1CC[C@H]3[C@@H]4CC[C@H]5C[C@@H](O)CC[C@]5(C)[C@H]4CC[C@]13C)CO2", "SF-268 CNS", "7.38 µM"]
]}

---

The following compounds are shown together with reported TGI values.
tested on: SN12C renal; test: NCI tumour cell line growth inhibition, 48 h

{"columns": ["RECORD_SMILES", "TGI"],
 "data": [
  ["CCc1ccc2[nH]c(O)c(C3=Nc4ccccc4C3=O)c2c1", "> 100 µM"],
  ["CN(C)C(=S)/N=c1\\ssc(=S)n1C", "> 100 µM"],
  ["c1ccc2cc3c(NC4=NCCO4)cccc3cc2c1", "> 100 µM"],
  ["C/C(=N\\NC(=S)N1CCC(N2CCCCC2)CC1)c1ccccn1", "8.17 µM"],
  ["CC1(C)CO[P@@](=S)(c2ccccn2)O[C@@H]1c1ccccc1", "> 100 µM"],
  ["CCSc1ccc([C@@H]2[C@@H](O)C(=O)N2c2cc(OC)c(OC)c(OC)c2)cc1", "22.2 µM"]
]}

---

system: MCF7 breast; test: NCI tumour cell line growth inhibition, 48 h
Met means recorded TGI is 20 µM or above; Not met means it is below 20 µM.

{"columns": ["RECORD_SMILES", "ASSIGNED_CATEGORY"],
 "data": [
  ["Clc1ccc(-c2cc(-c3cc4cc(Br)ccc4nc3Cl)on2)cc1", "Met"],
  ["Cc1ccc(-c2c(-c3ccccc3)[nH]c(C)c2C(=O)ONC(=O)c2ccccc2)cc1", "Not met"],
  ["CC(=O)O[C@H]1CC[C@@]2(C)C(=CC[C@@H]3[C@@H]2CC[C@]2(C)c4c(n[nH]c4C)C[C@@H]32)C1", "Met"],
  ["Cn1cc(-c2cc(-c3cn(C)c4ccc(Cl)cc34)[nH]n2)c2cc(Cl)ccc21", "Not met"],
  ["CCc1ccc2[nH]c(O)c(C3=Nc4ccccc4C3=O)c2c1", "Not met"]
]}

---

TGI overview
system: SF-539 CNS; assay: NCI tumour cell line growth inhibition, 48 h
PROPERTY_NAME: TGI (µM)

{"columns": ["COMPOUND", "PROPERTY_NAME", "INEQUALITY_SYMBOL", "READOUT_NUMBER"],
 "data": [
  ["O=c1nc2ccc([N+](=O)[O-])cc2[n+]([O-])[nH]1", "TGI", ">", 100],
  ["CN/N=C(/c1nc2ccc([N+](=O)[O-])cc2[nH]c1=O)C(O)c1ccc(C(O)/C(=N\\NC)c2nc3ccc([N+](=O)[O-])cc3[nH]c2=O)cc1 (configuration not stated)", "TGI", ">", 100],
  ["c1cc2c3c(c1)c1cc4c(cc1c[n+]3CC2)OCO4", "TGI", "=", 15.4],
  ["COc1cc(C(=O)N[C@H]2CCc3cc(OC)c(OC)c(OC)c3-c3ccc(SC)c(=O)cc32)cc(OC)c1OC", "TGI", "=", 0.0145],
  ["C=C1C(=O)O[C@H]2[C@H]1CC/C(Cn1cc(-c3ccc(N)cc3)nn1)=C\\CC[C@@]1(C)O[C@@H]21", "TGI", "=", 8.75],
  ["COC(=O)c1c(CC(Cc2ccc3c(c2)CCCC3)C(=O)O)ccc2c1CCCC2 (configuration not stated)", "TGI", "=", 44.9],
  ["N#Cc1c(Cl)c2cccnc2n2c1nc1ccccc12", "TGI", "=", 5.4]
]}
